experiment notes: In vitro inhibitory concentration required against Mur B enzyme was determined
Set-up: species or system Staphylococcus aureus
pIC50: −log10 of the molar value.
recorded metric: pIC50

1) C=CCn1cc(-c2cccc(Oc3ccc(C(C)(C)C)cc3)c2)n([C@@H](CCCC)C(=O)O)c1=O
4.40

a. CCCC[C@@H](C(=O)O)n1c(-c2cccc(Oc3ccc(C(C)(C)C)cc3)c2)cn(CC(=O)NCCc2ccccc2Cl)c1=O
b. CCCC[C@@H](C(=O)O)N1C(=O)C(CC(=O)NCCc2ccccc2Cl)SC1c1cccc(Oc2ccc(C(C)(C)C)cc2)c1 (some centres undefined)
Exercise: Please compare: a and b . Report which one has the smaller pIC50 value. Identify your selection by its label.
Solution: a
(a: 4.60, b: 4.92)

====

experiment notes: In vitro inhibitory concentration required against Mur B enzyme was determined
Parameters: species or system Staphylococcus aureus
pIC50: −log10 of the molar value.
recorded metric: pIC50

1) CCCC[C@@H](C(=O)O)n1c(-c2cccc(Oc3ccc(C(C)(C)C)cc3)c2)cn(CC(=O)NCc2ccc(Cl)c(Cl)c2)c1=O
4.82
2) CCCC[C@@H](C(=O)O)n1c(-c2cccc(Oc3ccc(C(C)(C)C)cc3)c2)cn(Cc2ccccc2)c1=O
4.80

Taken from ChEMBL document CHEMBL1136622.
